- Tested on: U-2 OS
- protocol: cell painting activity score (Mahalanobis distance from DMSO wells); higher = stronger morphological phenotype
- settings: 1.25 µM; 24 h
Provide the reported cell painting activity score of each item.
One number for each entry.

State its cell painting activity score: CCCC1(c2ccccc2)NC(=O)N(CC(=O)N(C)Cc2c(F)cccc2Cl)C1=O (stereo not given) 4.87

State its cell painting activity score: CC(=O)N[C@@H](CCCCNC(=O)CSCCNC(=O)CCNC(=O)[C@H](O)C(C)(C)COP(=O)(O)OP(=O)(O)OC[C@H]1O[C@@H](n2cnc3c(N)ncnc32)[C@H](O)[C@@H]1OP(=O)(O)O)C(N)=O.O=C(O)C(F)(F)F 5.02

State its cell painting activity score: COS(=O)(=O)O.C[n+]1c2ccccc2nc2ccccc21 5.06

State its cell painting activity score: CC(C)[C@H]1OC(=O)[C@H](Cc2ccccc2)N(C)C(=O)[C@@H](C(C)C)OC(=O)[C@H](Cc2ccccc2)N(C)C(=O)[C@@H](C(C)C)OC(=O)[C@H](Cc2ccccc2)N(C)C1=O 4.9

Read the next record carefully.
State its cell painting activity score: CC1(C)CCC2=C(O1)c1ccccc1C(=O)C2=O 4.86
